Target desc: Nav1.6 (Homo sapiens, UniProt Q9UQD0)
Sequence (Q9UQD0 whole entry, canonical isoform): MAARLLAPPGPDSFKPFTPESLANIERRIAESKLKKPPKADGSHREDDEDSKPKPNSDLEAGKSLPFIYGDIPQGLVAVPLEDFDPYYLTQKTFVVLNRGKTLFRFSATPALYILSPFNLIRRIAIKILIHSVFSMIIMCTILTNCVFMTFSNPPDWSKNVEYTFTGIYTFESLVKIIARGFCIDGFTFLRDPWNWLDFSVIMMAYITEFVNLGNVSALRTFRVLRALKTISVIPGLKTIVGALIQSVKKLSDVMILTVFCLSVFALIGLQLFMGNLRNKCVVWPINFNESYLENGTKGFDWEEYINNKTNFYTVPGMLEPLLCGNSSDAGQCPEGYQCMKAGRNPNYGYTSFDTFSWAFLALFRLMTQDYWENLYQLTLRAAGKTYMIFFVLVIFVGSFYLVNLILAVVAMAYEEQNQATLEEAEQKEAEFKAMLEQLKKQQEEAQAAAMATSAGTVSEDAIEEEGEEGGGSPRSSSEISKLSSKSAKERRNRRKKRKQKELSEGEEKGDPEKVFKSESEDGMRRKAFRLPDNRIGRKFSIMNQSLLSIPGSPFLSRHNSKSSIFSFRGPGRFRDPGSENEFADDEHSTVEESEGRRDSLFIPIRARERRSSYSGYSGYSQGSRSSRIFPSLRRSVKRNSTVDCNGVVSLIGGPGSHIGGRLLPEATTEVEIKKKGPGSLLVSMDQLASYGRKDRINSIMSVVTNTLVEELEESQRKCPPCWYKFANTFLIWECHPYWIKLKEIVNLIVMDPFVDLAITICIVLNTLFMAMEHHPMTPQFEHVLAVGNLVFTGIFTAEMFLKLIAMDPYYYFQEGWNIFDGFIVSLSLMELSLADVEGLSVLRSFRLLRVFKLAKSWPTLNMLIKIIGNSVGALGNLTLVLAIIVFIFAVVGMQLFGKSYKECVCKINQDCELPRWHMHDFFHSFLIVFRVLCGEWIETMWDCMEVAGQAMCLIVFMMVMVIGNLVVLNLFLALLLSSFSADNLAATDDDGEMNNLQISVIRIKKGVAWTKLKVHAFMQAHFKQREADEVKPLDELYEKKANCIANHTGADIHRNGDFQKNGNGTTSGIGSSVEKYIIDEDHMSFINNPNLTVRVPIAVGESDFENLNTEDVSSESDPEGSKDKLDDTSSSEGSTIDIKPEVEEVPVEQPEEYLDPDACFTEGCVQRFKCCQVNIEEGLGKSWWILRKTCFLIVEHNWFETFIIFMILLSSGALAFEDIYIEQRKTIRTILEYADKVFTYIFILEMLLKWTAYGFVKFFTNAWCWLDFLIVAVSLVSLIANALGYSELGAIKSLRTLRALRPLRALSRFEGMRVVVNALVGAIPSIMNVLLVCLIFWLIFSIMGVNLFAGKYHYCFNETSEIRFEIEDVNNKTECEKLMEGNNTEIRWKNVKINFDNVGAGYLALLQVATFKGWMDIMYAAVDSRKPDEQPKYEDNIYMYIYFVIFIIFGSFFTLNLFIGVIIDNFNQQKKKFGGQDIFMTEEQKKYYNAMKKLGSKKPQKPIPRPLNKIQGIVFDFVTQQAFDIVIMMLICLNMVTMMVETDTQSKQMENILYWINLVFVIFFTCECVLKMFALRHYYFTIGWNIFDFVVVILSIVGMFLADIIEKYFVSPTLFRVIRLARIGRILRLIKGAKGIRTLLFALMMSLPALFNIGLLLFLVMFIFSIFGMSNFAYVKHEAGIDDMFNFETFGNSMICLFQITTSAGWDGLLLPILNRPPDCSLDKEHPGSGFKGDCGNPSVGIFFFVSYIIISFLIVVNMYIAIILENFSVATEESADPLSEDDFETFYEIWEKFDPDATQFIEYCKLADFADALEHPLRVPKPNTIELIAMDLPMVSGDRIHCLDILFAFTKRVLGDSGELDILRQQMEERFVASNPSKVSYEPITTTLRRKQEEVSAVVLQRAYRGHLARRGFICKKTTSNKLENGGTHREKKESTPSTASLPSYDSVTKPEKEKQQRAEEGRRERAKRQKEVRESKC
Protocol details: Nav isoform selectivity, Nav1.6
Format: cell-based
Design: concentration or dose not given beside the values
Hi there, I'd appreciate the recorded Nav isoform inhibition (%) Nav1.6 for every entry that follows.
# answer = value followed by unit

The following molecules have reported results that may help.
Chemical structure | Nav isoform inhibition (%) Nav1.6
O=C(NCc1noc(-c2c3ccccc3nn2CCn2ccnc2)n1)c1cccc(OC(F)(F)F)c1 | 79%
COc1ccc(C(=O)NCc2noc(-c3nn(CCn4ccnc4)c4ccccc34)n2)c(OC)c1OC | 63%
COc1cccc(C(=O)NCc2noc(-c3nn(CCn4ccnc4)c4ccccc34)n2)c1OC | 77%
COc1cccc(C(=O)NCc2noc(-c3c4ccccc4nn3CCn3ccnc3)n2)c1OC | 73%
O=C(NCc1noc(-c2c3ccccc3nn2CCn2ccnc2)n1)c1ccc2ccccc2c1 | 86%

Next up:
Given item "O=C(NCc1noc(-c2c3ccccc3nn2CCn2ccnc2)n1)c1cccc(F)c1F" , the value recorded as its Nav isoform inhibition (%) Nav1.6 is 76%
